Biological target: PD-1/PD-L1 protein/protein interaction (Homo sapiens)
Construct: Recombinant human PD-L1 protein (19-238) with a His-tag at the C-terminus; PD1-H5257 (PD-1)
Sequence (Q9NZQ7 19-238): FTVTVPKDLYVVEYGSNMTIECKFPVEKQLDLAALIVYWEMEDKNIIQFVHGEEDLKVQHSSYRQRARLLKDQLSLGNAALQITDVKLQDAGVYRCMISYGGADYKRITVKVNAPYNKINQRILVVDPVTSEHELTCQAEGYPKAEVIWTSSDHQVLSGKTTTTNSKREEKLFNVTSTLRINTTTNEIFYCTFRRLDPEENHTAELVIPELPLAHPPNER
Assay: PD-1/PD-L1 homogenous time-resolved fluorescence (HTRF) binding assay
Settings: recombinant human PD-L1 (19-238)-His 10 nM, human PD-1 (25-167)-Fc 3 nM, 25° C., PBS pH 7.4
Hi there, I'd appreciate the recorded IC50 for every entry that follows.

Q. Find the recorded IC50 belonging to Cc1c(OCCCN2CCC(O)C2)cccc1-c1cccc2c1CCN2C(=O)c1nc2c(n1C)CCNC2 (stereo not drawn) and report it.
A. ≤ 0.025 µM

Q. Find the recorded IC50 belonging to O=C(CCN1CCC(O)C1)N1CCc2c(-c3cccc4c3CCN4C(=O)c3cn4c(n3)CNCC4)cccc21 (stereo not drawn) and report it.
A. ≤ 0.025 µM

Q. Find the recorded IC50 belonging to `O=C(O)CN1CCc2nc(C(=O)N3CCc4c(-c5cccc(CCCN6CCOCC6)c5)cccc43)sc2C1` and report it.
A. ≤ 0.025 µM

Q. Find the recorded IC50 belonging to `Cc1c(NC(=O)c2nccs2)cccc1-c1cccc2c1CCN2C(=O)c1nc2c(s1)CN(CC(=O)O)CC2` and report it.
A. ≤ 0.025 µM

Q. Find the recorded IC50 belonging to `O=C(O)CCN1CCc2nc(C(=O)N3CCCc4c(-c5cccc(OCCN6CCOCC6)c5)cccc43)oc2C1` and report it.
A. 0.1 to 0.2 µM

Q. Find the recorded IC50 belonging to Cc1c(OCCCN2CCC(O)C2)cccc1-c1cccc2c1CCN2C(=O)c1nnc(CN)s1 (stereo not drawn) and report it.
A. ≤ 0.025 µM

Q. Find the recorded IC50 belonging to `O=C(c1nc2c(o1)CN(CCO)CC2)N1CCCc2c(-c3cccc(OCCN4CCOCC4)c3)cccc21` and report it.
A. 0.025 to 0.1 µM

Q. Find the recorded IC50 belonging to `Cc1c(OCCCN2CCCC2)cccc1-c1cccc2c1CCN2C(=O)c1ncc(CNCCO)s1` and report it.
A. ≤ 0.025 µM

Q. Find the recorded IC50 belonging to `O=C(O)CN1CCc2nc(C(=O)N3CCc4c(-c5cccc6c5CCN6CCCN5CCOCC5)cccc43)sc2C1` and report it.
A. ≤ 0.025 µM

Q. Find the recorded IC50 belonging to O=C(O)CN1CCc2nc(C(=O)N3CCc4c(-c5cccc(OCCCCN6CCC(O)C6)c5)cccc43)sc2C1 (stereo not drawn) and report it.
A. ≤ 0.025 µM

Q. Find the recorded IC50 belonging to `O=C(O)CN1CCc2nc(C(=O)N3CCc4c(-c5ccccc5)cccc43)sc2C1` and report it.
A. ≤ 0.025 µM

Q. Find the recorded IC50 belonging to `Cn1ncc2c(-c3cccc4c3CCN4C(=O)c3nc4c(s3)CN(CC(=O)O)CC4)cccc21` and report it.
A. ≤ 0.025 µM

Q. Find the recorded IC50 belonging to `O=C(O)CN1CCc2nc(C(=O)N3CCc4c(-c5ccc6c(c5)OCCO6)cccc43)sc2C1` and report it.
A. 0.025 to 0.1 µM

Q. Find the recorded IC50 belonging to O=C(O)CN1CCc2nc(C(=O)N3CCc4c(-c5cccc6c5CCN6CCN5CCC(O)C5)cccc43)sc2C1 (stereo not drawn) and report it.
A. ≤ 0.025 µM

Q. Find the recorded IC50 belonging to `O=C(O)CN1CCc2nc(C(=O)N3CCc4c(-c5cccc6c5CCN6C(=O)c5nccs5)cccc43)sc2C1` and report it.
A. 0.025 to 0.1 µM

Q. Find the recorded IC50 belonging to Cc1c(OCCCN2CCC(O)C2)cccc1-c1cccc2c1CCN2C(=O)c1nc2c(n1C)CCN(CC(=O)O)C2 (stereo not drawn) and report it.
A. ≤ 0.025 µM

Q. Find the recorded IC50 belonging to O=C(O)CN1CCc2nc(C(=O)N3CCc4c(-c5cccc6c5CCN6CCCN5CCC(O)C5)cccc43)sc2C1 (stereo not drawn) and report it.
A. ≤ 0.025 µM

Q. Find the recorded IC50 belonging to O=C(O)CN1CCc2nc(C(=O)N3CCc4c(-c5cccc(OCCCN6CCC(O)C6)c5)cccc43)sc2C1 (stereo not drawn) [Example 7] and report it.
A. ≤ 0.025 µM

Q. Find the recorded IC50 belonging to O=C(O)CN1CCc2nc(C(=O)N3CCc4c(-c5ccc(OCCCN6CCC(O)C6)cc5)cccc43)sc2C1 (stereo not drawn) and report it.
A. ≤ 0.025 µM

Q. Find the recorded IC50 belonging to Cc1c(OCCCN2CCC(O)C2)cccc1-c1cccc2c1CCN2C(=O)c1nc2c(n1C)CN(CC(=O)O)CC2 (stereo not drawn) and report it.
A. ≤ 0.025 µM

Q. Find the recorded IC50 belonging to Cc1c(NC(=O)CCN2CCC(O)C2)cccc1-c1cccc2c1CCN2C(=O)c1nc2c(o1)CN(CC(=O)O)CC2 (stereo not drawn) and report it.
A. ≤ 0.025 µM

Q. Find the recorded IC50 belonging to O=C(O)CN1CCc2nc(C(=O)N3CCc4c(-c5cccc(OCCN6CCC(O)C6)c5)cccc43)sc2C1 (stereo not drawn) and report it.
A. ≤ 0.025 µM

Q. Find the recorded IC50 belonging to `O=C(O)CN1CCc2nc(C(=O)N3CCc4c(-c5cccc(/C=C/CN6CCOCC6)c5)cccc43)sc2C1` and report it.
A. ≤ 0.025 µM

Q. Find the recorded IC50 belonging to `O=C(O)CN1CCc2nc(C(=O)N3CCc4c(-c5cccc6c5CCN6C(=O)c5ccccn5)cccc43)sc2C1` and report it.
A. 0.025 to 0.1 µM

Q. Find the recorded IC50 belonging to `Cc1c(OCCCN2CCOCC2)cccc1-c1cccc2c1CCN2C(=O)c1nc2c(n1C)CN(CC(=O)O)CC2` and report it.
A. ≤ 0.025 µM

Q. Find the recorded IC50 belonging to Cc1c(NC(=O)CCN2CCC(O)C2)cccc1-c1cccc2c1CCN2C(=O)c1nc2c(n1C)CN(CC(=O)O)CC2 (stereo not drawn) [Example 20] and report it.
A. ≤ 0.025 µM

Q. Find the recorded IC50 belonging to `Cc1ccccc1-c1cccc2c1CCN2C(=O)c1nc2c(s1)CN(CC(=O)O)CC2` and report it.
A. 0.025 to 0.1 µM

Q. Find the recorded IC50 belonging to Cc1nc(C(=O)N2CCc3c(-c4cccc5c4CCN5C(=O)CCN4CCC(O)C4)cccc32)sc1CNCCO (stereo not drawn) and report it.
A. ≤ 0.025 µM

Q. Find the recorded IC50 belonging to Cc1c(NC(=O)CCN2CCC(O)C2)cccc1-c1cccc2c1CCN2C(=O)c1nc2c(n1C)CN(CC(=O)O)CC2 (stereo not drawn) [Example 33] and report it.
A. ≤ 0.025 µM

Q. Find the recorded IC50 belonging to O=C(O)CN1CCc2nc(C(=O)N3CCc4c(-c5cccc(NC(=O)CCN6CCC(O)C6)c5)cccc43)sc2C1 (stereo not drawn) and report it.
A. ≤ 0.025 µM
